Data provenance is patent US8471005B2.

Overview of reported pIC50 across a group of molecules:
molecular target: ALK (Homo sapiens, UniProt Q9UM73); construct: host or cells: baculovirus expression system; assay: ALK Kinase Assay (ELISA/TRF, PLC-γ substrate); type: biochemical; conditions: ALK kinase inhibition, 1 μM ATP; read-out: ALK Potency
Sequence (Q9UM73 19-1620): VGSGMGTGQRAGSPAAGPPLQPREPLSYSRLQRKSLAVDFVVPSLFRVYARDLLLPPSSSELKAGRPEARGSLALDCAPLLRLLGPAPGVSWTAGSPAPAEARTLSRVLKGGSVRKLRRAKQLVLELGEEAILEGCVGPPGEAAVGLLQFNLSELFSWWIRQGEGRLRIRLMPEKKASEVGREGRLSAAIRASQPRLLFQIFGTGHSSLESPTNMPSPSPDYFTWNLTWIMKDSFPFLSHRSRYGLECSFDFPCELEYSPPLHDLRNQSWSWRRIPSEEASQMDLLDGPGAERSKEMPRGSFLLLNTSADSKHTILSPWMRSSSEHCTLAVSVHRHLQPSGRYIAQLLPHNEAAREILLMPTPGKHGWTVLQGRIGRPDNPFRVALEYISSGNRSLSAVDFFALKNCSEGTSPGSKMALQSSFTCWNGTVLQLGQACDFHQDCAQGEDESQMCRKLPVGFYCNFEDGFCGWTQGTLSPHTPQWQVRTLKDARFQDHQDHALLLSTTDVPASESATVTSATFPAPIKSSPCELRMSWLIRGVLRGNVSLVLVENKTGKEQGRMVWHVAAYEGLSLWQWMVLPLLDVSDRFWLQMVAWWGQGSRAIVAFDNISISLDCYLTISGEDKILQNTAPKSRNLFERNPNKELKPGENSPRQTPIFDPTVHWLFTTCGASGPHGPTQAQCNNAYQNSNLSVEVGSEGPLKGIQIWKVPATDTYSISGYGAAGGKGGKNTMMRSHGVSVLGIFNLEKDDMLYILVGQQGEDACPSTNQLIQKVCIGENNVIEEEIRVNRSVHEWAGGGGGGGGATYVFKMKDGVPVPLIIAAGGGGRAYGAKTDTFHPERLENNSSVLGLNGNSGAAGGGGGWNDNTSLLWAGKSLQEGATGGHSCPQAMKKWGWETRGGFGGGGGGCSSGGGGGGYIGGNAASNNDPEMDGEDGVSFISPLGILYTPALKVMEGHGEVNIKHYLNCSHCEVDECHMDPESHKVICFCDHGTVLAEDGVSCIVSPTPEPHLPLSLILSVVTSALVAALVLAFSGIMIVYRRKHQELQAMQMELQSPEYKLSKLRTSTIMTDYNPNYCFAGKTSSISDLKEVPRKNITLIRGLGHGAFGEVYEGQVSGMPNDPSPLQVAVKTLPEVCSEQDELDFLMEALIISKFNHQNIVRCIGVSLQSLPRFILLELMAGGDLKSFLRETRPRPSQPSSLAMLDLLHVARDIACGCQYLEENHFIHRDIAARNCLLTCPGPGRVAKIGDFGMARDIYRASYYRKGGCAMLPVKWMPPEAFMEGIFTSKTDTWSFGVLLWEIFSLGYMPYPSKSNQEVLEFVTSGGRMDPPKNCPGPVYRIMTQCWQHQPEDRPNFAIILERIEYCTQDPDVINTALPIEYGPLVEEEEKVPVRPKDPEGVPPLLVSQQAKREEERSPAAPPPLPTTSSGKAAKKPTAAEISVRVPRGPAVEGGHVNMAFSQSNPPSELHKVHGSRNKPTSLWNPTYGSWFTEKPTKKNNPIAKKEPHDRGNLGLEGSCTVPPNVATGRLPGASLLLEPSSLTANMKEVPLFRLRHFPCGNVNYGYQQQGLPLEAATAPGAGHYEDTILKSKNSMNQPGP
pIC50: −log10 of the molar value.

{"molecule": "COc1ccccc1-c1ccc2cnc(Nc3ccc(C4CCNC4)cc3)nn12 (stereo not shown) [Example 1012]", "pIC50": "> 7.00"}
{"molecule": "COc1ccccc1-c1ccc2cnc(Nc3cccc(OCCN4CCOCC4)c3)nn12 [Example 1003]", "pIC50": "6.00 to 7.00"}

Prompt: Give the measured pIC50 of CC(C)S(=O)(=O)c1cccc(-c2ccc3cnc(Nc4ccc(Cl)c(OC[C@H]5CCCN5)c4)nn23)c1 [Example 1016] .
Completion: 6.00 to 7.00

Prompt: Entry under review: COc1cc(C2CCNCC2)ccc1Nc1ncc2ccc(-c3cccc4c3NC(=O)C4)n2n1 [Example 714] . Reported pIC50?
Completion: 5.00 to 6.00
